# procedure_details: binders of probe aHhip on microarray, primary screen, stem cell growth factor project, biochemical, small-molecule microarray, fluorescence 635/667 (AID 1087);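 also: score merges spot fluorescence at 667nm with spot signal to noise ratio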
# measurement_setup: higher = more signal
Items are presented alongside their recorded composite z-score.
metric_name: composite z-score

- smiles_data: "CC(C)OC(=O)C=C1C[C@@H](c2ccccn2)O[C@@H](c2ccccn2)O1"
  metric_name: "composite z-score"
  obs_value: -0.112
- smiles_data: "Cc1nc2cc(Br)ccc2c(=O)o1"
  metric_name: "composite z-score"
  obs_value: 0.0383
- smiles_data: "COC(=O)[C@]1(CCC(=O)OC(C)(C)C)N=C(c2ccc(OCCCO)cc2)O[C@@H]1c1ccccc1CN=[N+]=[N-]"
  metric_name: "composite z-score"
  obs_value: -0.169
- smiles_data: "COCC(=C=CC[C@@H](O)c1cccc(OCCO)c1)C[C@@H](O)c1ccccn1"
  metric_name: "composite z-score"
  obs_value: 0.176
- smiles_data: "CCOC(=O)C1=C[C@@H](C(C)(C)C)N(S(=O)(=O)c2ccc(C)cc2)[C@H]1c1ccc(F)cc1"
  metric_name: "composite z-score"
  obs_value: -0.0324
- smiles_data: "Cc1ccc([C@@H]2C[C@@H](Sc3ccccc3)[C@H](C(=O)O)CN2S(=O)(=O)c2ccc(C)cc2)cc1"
  metric_name: "composite z-score"
  obs_value: 0.0373
- smiles_data: "C=CC[C@]1(C(=O)NCc2ccccc2)N=C(c2ccc(OCCCO)cc2)O[C@H]1c1ccccc1N=[N+]=[N-]"
  metric_name: "composite z-score"
  obs_value: -0.171
- smiles_data: "Cc1ccc(S[C@]2(C(=O)NCCCN(C)C)CC(=O)N(Cc3cc(C(F)(F)F)cc(C(F)(F)F)c3)[C@@H]2c2ccc(CO)cc2)cc1"
  metric_name: "composite z-score"
  obs_value: -0.0645
